- System: MCF7
- experiment_description: Cytotoxicity against human MCF7 cells assessed as reduction in cell viability measured for 48 hrs by MTT assay
- Assay type: functional, cell-based
- condition_notes: MCF7, 48 h
pIC50: −log10 of the molar value.

test_smiles | tested_target | pIC50
Cc1cc(-c2nc3ccccc3s2)ccc1N1C(=O)c2ccccc2C1=O | MCF7 | 7.15

---

- System: CCRF-CEM
- experiment_description: cells
- condition_notes: Homo sapiens, 48 h
pIC50: −log10 of the molar value.

test_smiles | pIC50
CCOC(=O)c1cnc2c(-c3nc4ccccc4s3)c(Nc3ccccc3)nn2c1O | 5.46

---

- System: Caco-2
- experiment_description: Anticancer activity against human Caco-2 cells assessed as inhibition of cell growth incubated for 48 hrs by MTT assay
- Assay type: functional, cell-based
- condition_notes: Caco-2, 48 h
measured_endpoint: IC50 (µM)

test_smiles | measured_endpoint | readout_unit | numeric_result
O=C(Cn1cc(CCCO)nn1)N1CCN(c2nc3ccccc3s2)CC1 | IC50 | µM | 42
